assay: Metabolic stability in human liver microsomes (in vitro t1/2); type: in vitro ADME; conditions: human, human liver microsomes, pH 7.4, Table 8a; 0.5 mg/mL HLM, 2 mM NADPH, 37° C.; read-out: t1/2 Experiment 1
Structures can show the parent of a compound that is named as a salt.
Recorded half-life, one value per entry.

>  <compound>
[2H]C1([2H])c2cc(F)ccc2[C@H](C(C)C)[C@](CCN(C)CCCc2nc3ccccc3[nH]2)(OC(=O)COC)C1([2H])[2H] [Compound 500]

>  <half-life / min>
4.61

$$$$
>  <compound>
[2H]C([2H])([2H])N(CC[C@]1(OC(=O)COC)[C@@H](C(C)C)c2ccc(F)cc2C([2H])([2H])C1([2H])[2H])C([2H])([2H])C([2H])([2H])C([2H])([2H])c1nc2ccccc2[nH]1 [Compound 703a]

>  <half-life / min>
7.17

$$$$
>  <compound>
COCC(=O)O[C@]1(CCN(C)CCCc2nc3ccccc3[nH]2)CCc2cc(F)ccc2[C@@H]1C(C)C [Mibefradil, dihydrochloride, reference compound]

>  <half-life / min>
8.49

$$$$
